// IC50 lookup, one value per entry
target: Epidermal growth factor receptor (Homo sapiens); assay: Inhibition of wild type human N-terminal GST tagged EGFR (669 to 1210 residues) expressed in Sf21 insect cells incubated for 30 mins in presence of ATP by HTRF analysis
Sequence (P00533 whole entry, the tested form may be a part): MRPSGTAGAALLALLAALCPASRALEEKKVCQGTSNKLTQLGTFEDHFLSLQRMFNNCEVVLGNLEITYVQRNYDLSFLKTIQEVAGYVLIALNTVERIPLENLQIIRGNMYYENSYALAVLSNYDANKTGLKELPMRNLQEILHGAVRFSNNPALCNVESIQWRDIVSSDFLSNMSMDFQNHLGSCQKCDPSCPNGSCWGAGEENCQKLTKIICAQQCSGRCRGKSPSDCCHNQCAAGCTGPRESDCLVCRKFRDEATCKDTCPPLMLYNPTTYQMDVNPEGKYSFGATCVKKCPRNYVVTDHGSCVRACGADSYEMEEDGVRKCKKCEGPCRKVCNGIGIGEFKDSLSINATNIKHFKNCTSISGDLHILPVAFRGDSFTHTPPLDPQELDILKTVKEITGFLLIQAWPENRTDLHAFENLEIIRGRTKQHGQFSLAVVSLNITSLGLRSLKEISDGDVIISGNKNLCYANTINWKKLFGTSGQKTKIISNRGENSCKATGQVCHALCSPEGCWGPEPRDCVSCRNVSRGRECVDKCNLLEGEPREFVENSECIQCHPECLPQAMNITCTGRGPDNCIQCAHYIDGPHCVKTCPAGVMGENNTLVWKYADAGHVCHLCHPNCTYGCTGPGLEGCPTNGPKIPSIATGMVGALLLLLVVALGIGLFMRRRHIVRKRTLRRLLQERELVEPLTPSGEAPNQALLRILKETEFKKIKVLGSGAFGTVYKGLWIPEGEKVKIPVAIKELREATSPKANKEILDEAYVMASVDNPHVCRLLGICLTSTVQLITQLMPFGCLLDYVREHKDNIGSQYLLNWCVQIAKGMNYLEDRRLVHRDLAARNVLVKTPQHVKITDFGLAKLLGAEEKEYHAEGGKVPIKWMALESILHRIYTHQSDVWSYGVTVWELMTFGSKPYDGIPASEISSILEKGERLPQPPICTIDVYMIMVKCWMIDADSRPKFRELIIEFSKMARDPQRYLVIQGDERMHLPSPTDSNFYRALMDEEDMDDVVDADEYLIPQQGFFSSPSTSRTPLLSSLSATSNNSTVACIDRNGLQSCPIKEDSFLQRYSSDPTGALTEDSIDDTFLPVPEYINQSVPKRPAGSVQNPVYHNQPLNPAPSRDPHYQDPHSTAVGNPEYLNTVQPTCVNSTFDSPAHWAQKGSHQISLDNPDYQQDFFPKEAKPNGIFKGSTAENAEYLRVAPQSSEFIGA
Quantity measured: IC50 (nM)

>  <Chemical smiles>
Cc1cc(Nc2ncnc3cc(O)c(NC(=O)/C=C/[C@H]4CCCN4C)cc23)ccc1Oc1cnc2ccnn2c1

>  <Units of measure>
nM

>  <Value>
1.03

$$$$
>  <Chemical smiles>
Cc1cc(Nc2ncnc3cc(O)c(NC(=O)/C=C/[C@H]4CCCN4C)cc23)ccc1Oc1ccn2ccnc2c1

>  <Units of measure>
nM

>  <Value>
2.31

$$$$
>  <Chemical smiles>
COCC(=O)NC/C=C/c1ccc2ncc(C#N)c(Nc3ccc(Oc4cc5nncn5cn4)c(C)c3)c2c1

>  <Units of measure>
nM

>  <Value>
1830

$$$$
>  <Chemical smiles>
Cc1cc(Nc2ncnc3ccc(NC(=O)/C=C/[C@H]4CCCN4C)cc23)ccc1Oc1cc2nncn2cn1

>  <Units of measure>
nM

>  <Value>
1.19

$$$$
>  <Chemical smiles>
Cc1cc(Nc2ncnc3cc(O)c(NC(=O)/C=C/[C@H]4CCCN4C)cc23)ccc1Oc1cnn2cnnc2c1

>  <Units of measure>
nM

>  <Value>
11.8

$$$$
>  <Chemical smiles>
Cc1cc(Nc2ncnc3cc(O)c(NC(=O)/C=C/[C@H]4CCCN4C)cc23)ccc1Oc1ccc2nccn2c1

>  <Units of measure>
nM

>  <Value>
2.32

$$$$
>  <Chemical smiles>
Cc1cc(Nc2ncnc3cc(O)c(NC(=O)/C=C/[C@H]4CCCN4C)cc23)ccc1Oc1ccn2cnnc2c1

>  <Units of measure>
nM

>  <Value>
22.7

$$$$
>  <Chemical smiles>
Cc1cc(Nc2ncnc3cc(O)c(NC(=O)/C=C/[C@H]4CCCN4C)cc23)ccc1Oc1cc2nccn2cn1

>  <Units of measure>
nM

>  <Value>
1.11

$$$$
